- assaySystem: Cytochrome P450 2C9 (Homo sapiens)
- experiment: blockers of cytochrome P450 2C9 activity – biochemical, luminescence, ADME assay, primary screen (AID 777)
- details: CYP2C9 Supersomes, luciferin-H conversion, at 5 µM, stronger effect = higher value
Hit rate of the full screen: of about 96,000 compounds, about 19,000 (20%) were called active. Not all results are given here.
For each record, write down the corresponding inhibition.
Numbers only, in %.

Dear colleague, could you please provide inhibition for the compounds listed below?
1. O=C(Nc1cc(=O)[nH]c2ncnn12)c1ccccc1Cl
2. Cc1ccc(CNC(=O)C2CCCN2C(=O)NCc2ccccc2)cc1 (configuration not stated)
3. COc1ccc(NC(=O)Nc2cccc3cccnc23)cc1
4. CN=C1S/C(=C\c2ccc(Sc3ccc(Cl)cc3)o2)C(=O)N1C
5. COc1ccc(-n2c(SCC(=O)Nc3sc4c(c3C#N)CCCC4)nnc2-c2ccc(O)cc2)cc1
6. S=c1[nH]nc(CSCc2ccc(Cl)cc2Cl)n1-c1ccccc1
7. CCOc1ncccc1C(=O)OCc1cn2cc(Cl)ccc2n1
8. CCOC(=O)C(CC)Sc1ncnc2c1nnn2-c1ccc(F)cc1 (configuration not stated)

Data returned:
5.6
-10
-39.1
29.4
33.9
76.5
45
8.9

Dear colleague, could you please provide inhibition for the compounds listed below?
1. Cc1[nH]c2ccc(S(N)(=O)=O)cc2c1C
2. N#Cc1ccsc1NC(=O)CN1CCCCC1
3. Cc1cccc(CSc2nnc(NC(=O)CSc3nnc(C)s3)s2)c1
4. CC(C)Oc1ccc(CCc2n[nH]c(=S)n2Cc2ccccc2)cc1

Data returned:
1: -42.1; 2: -15.3; 3: -12; 4: 16.2

* * *

- assaySystem: Cytochrome P450 2C9 (Homo sapiens) (UniProt P11712)
- Sequence (P11712 whole entry, looked up): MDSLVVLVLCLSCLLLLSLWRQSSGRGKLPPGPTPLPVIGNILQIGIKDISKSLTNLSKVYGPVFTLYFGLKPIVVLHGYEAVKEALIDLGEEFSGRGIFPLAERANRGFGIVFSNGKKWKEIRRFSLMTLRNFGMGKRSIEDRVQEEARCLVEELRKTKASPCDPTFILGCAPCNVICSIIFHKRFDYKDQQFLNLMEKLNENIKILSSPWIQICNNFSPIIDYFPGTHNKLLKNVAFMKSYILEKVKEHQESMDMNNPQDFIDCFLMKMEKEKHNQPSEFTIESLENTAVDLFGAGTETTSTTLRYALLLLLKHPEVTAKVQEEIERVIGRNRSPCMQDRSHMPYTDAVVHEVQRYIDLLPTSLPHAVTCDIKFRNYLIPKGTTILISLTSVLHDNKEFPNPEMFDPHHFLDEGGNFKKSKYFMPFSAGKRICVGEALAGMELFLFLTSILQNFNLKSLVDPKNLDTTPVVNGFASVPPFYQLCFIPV
- experiment: blockers of cytochrome P450 2C9 activity – biochemical, luminescence, ADME assay, primary screen (AID 777)
- details: CYP2C9 Supersomes, luciferin-H conversion, at 5 µM, stronger effect = higher value
About 19,000 (20%) of roughly 96,000 compounds were called active. These entries were drawn from the full list.
Classification scheme (inhibition): 1 = under 10%, 2 = from 10% up to 30%, 3 = 30% and over

Some solved cases for reference:
Data request: Entry CS(=O)(=O)c1ccc2nc(NC(=O)CN3CCCCCC3)sc2c1 belongs to which category?
Data returned: 2

Data request: Entry Cc1ccccc1-n1c(C)cc(/C=N/NC(=O)c2ccc(CN3CCOCC3)cc2)c1C belongs to which category?
Data returned: 3

Data request: Entry Cc1ccc(C(c2sc3nc(C)nn3c2O)N2CCN(c3ccccc3)CC2)cc1 (stereo not drawn) belongs to which category?
Data returned: 3

Data request: Entry O=C1c2oc3ccc(Br)cc3c(=O)c2C(c2cccc(F)c2)N1CCO (stereo not drawn) belongs to which category?
Data returned: 2

Data request: Entry CCCOn1c(-n2nc(C)cc2C)nc2ccccc2c1=O belongs to which category?
Data returned: 2

New cases:
Data request: Entry Cc1ccc(Cc2c(C)nc3nc(SCC(=O)NCCN4CCOCC4)nn3c2C)cc1 belongs to which category?
Data returned: 1

Data request: Entry CCC(C)Sc1nc2c(c(=O)[nH]c(=O)n2C)n1CC(O)COc1cccc2ccccc12 (stereo not drawn) belongs to which category?
Data returned: 2

Data request: Entry COc1ccc(CCn2nnnc2C(c2ccccc2)N2CCN(C)CC2)cc1OC (stereo not drawn) belongs to which category?
Data returned: 1

Data request: Entry COc1ccc(C(=S)Nc2ccccc2)cc1 belongs to which category?
Data returned: 2

Data request: Entry O=C(O)CSc1nccn1-c1cccc(Cl)c1 belongs to which category?
Data returned: 3

Data request: Entry O=C(NCCN1CCOCC1)c1c(F)c(F)c(F)c(F)c1F belongs to which category?
Data returned: 1

Data request: Entry CN(CCc1ccccn1)S(=O)(=O)c1ccc2c3c(cccc13)C(=O)N2 belongs to which category?
Data returned: 3

Data request: Entry O=C(NC(C(=O)NCCN1CCOCC1)C12CC3CC(CC(C3)C1)C2)C1CCCCC1 (stereo not drawn) belongs to which category?
Data returned: 2

Data request: Entry CCOC(=O)COc1cc(OCC(=O)OCC)c2c(=O)cc(-c3ccccc3)oc2c1 belongs to which category?
Data returned: 3
